Assign pressure in relative units to each entry below.
Tested on: catalase
Assay Summary: Catalase test: pressure increase after hydrogen peroxide addition to deinking process water of a paper factory
Type: biochemical
Particulars: 400 ppm active substance; 0.1% hydrogen peroxide; pressure increase after 10 minutes; comparison sample without additive 9.8

Some compounds with recorded pressure in relative units:
compound="N#CC(Br)(Br)C(N)=O [DBNPA, 2,2-dibromo-3-nitrilopropionamide]" tgt=catalase result="> 9.0 mV"
compound="CNC(=S)S [metamsodium, sodium monomethyldithiocarbamate]" tgt=catalase result="5.0 mV"
compound=O=C(C(Cl)=NO)c1ccc(O)cc1 tgt=catalase result="0.2 mV"
compound="CNC(=S)S [MDTCMA]" tgt=catalase result="> 9.0 mV"

Would you mind giving pressure in relative units for every compound in the list below?
1. OC[P+](CO)(CO)CO
2. N#CSCSC#N [MBT, methylene bisthiocyanate]

1. > 9.0 mV
2. 6.2 mV
